Assay: recombinant UMI read abundance after kanamycin selection (control-corrected) (log10(CPM+1)); higher = more efficient recombination; extreme values may be limits of the assay; sequences stand for … in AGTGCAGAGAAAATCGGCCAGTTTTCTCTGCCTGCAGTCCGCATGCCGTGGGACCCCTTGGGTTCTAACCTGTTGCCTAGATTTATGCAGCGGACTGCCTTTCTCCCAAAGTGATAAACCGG…AGGTTGGTTTCACT; site = the 11-nt donor;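 also: IS621 bridge recombinase in Escherichia coli cells against a fixed T5 target plasmid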
Please map values of recombinant UMI read abundance (log10) to classes as shown: bottom bin = under 0.01, middle bin = from 0.01 up to 0.8, top bin = 0.8 and over

Form field 'band' for ATTGTATCATGGACCGGTTTTCCCGGTAATCCGTATTTGTC (site ATTGTATCTGA)
top bin

Class for CGTTTGGCATGGACCGGTTTTCCCGGTAATCCGTATTTGAT (site CGTTTGGCTAA) ?
middle bin

Record GATTAACCATGGACCGGTTTTCCCGGTAATCCGTATTTGCT (site GATTATCCTAG) — which class?
middle bin

Class label required: AGGACGACATGGACCGGTTTTCCCGGTAATCCGTATTTGAC (site AGGACCACTGT)
middle bin

Entry TCATACGCATGGACCGGTTTTCCCGGTAATCCGTATTTGCA (site TCATACCCTTG) belongs to which category?
middle bin

Hello team, could you let me know which band the following sequence falls into: TAGGAATCATGGACCGGTTTTCCCGGTAATCCGTATTTGCG (site TAGGCATCTCG)
top bin

GET /class?item= AGGTAGGCATGGACCGGTTTTCCCGGTAATCCGTATTTGGC (site AAGTAGGCTGC)
middle bin

Band assignment needed for CTCGGCCCATGGACCGGTTTTCCCGGTAATCCGTATTTGTT (site CTCGGCCCTAA) please.
middle bin

Class (by measured recombinant UMI read abundance (log10)) for CTAATATCATGGACCGGTTTTCCCGGTAATCCGTATTTGAC (site CTATTATCTGT)
top bin

Where would TGTTCCCCATGGACCGGTTTTCCCGGTAATCCGTATTTGTA (site TGCTCCCCTTA) land among the classes by reported recombinant UMI read abundance (log10)?
middle bin

Consider AGGAGTACATGGACCGGTTTTCCCGGTAATCCGTATTTGAC (site AGGACTACTGT) . To which recombinant UMI read abundance (log10) class does it belong?
middle bin

Bin? CTGCTACCATGGACCGGTTTTCCCGGTAATCCGTATTTGCT (site CTGCTTCCTAG)
bottom bin

Form: Item = CTATGCACATGGACCGGTTTTCCCGGTAATCCGTATTTGTA (site GTATGCACTTA) ; Class = ?
bottom bin

Into which category would you place AAGCACGCATGGACCGGTTTTCCCGGTAATCCGTATTTGGA (site AAGCACGCTGC) ?
bottom bin

Sort into band: CACTACACATGGACCGGTTTTCCCGGTAATCCGTATTTGCT (site CACTACACTAG)
top bin

Note: place this sequence into its band. Item: TCACGAACATGGACCGGTTTTCCCGGTAATCCGTATTTGTC (site GCACGAACTGA)
bottom bin

For the record GCAGGTACATGGACCGGTTTTCCCGGTAATCCGTATTTGAC (site GGAGGTACTGT) , report the class its recombinant UMI read abundance (log10) corresponds to.
bottom bin

Where would CCCGGCCCATGGACCGGTTTTCCCGGTAATCCGTATTTGTT (site CCCGGCCCTAA) land among the classes by reported recombinant UMI read abundance (log10)?
middle bin

Tag the class for TTGGCAACATGGACCGGTTTTCCCGGTAATCCGTATTTGAT (site TTGGCAACTAT)
middle bin

Lab note: which band did TTAGAGGCATGGACCGGTTTTCCCGGTAATCCGTATTTGGA (site TTAGAGGCTTC) land in?
middle bin

Which class holds AGCCTAGCATGGACCGGTTTTCCCGGTAATCCGTATTTGTA (site AGCCTAGCTGA) ?
bottom bin

For this sequence, which bin applies? CATGTAACATGGACCGGTTTTCCCGGTAATCCGTATTTGCT (site TATGTAACTAG)
top bin

Each sequence maps to one class by recombinant UMI read abundance (log10). Which class for GTTGCTCCATGGACCGGTTTTCCCGGTAATCCGTATTTGGT (site GTTGTTCCTAC) ?
middle bin

Which recombinant UMI read abundance (log10) band matches AGGAGGACATGGACCGGTTTTCCCGGTAATCCGTATTTGCA (site AGGAGGACTTG) ?
top bin

Which of the defined bands does the recorded recombinant UMI read abundance (log10) of AGCTAGGCATGGACCGGTTTTCCCGGTAATCCGTATTTGGT (site AGCTAGGCTAC) sit within?
middle bin

Lab note: sort ACATCAACATGGACCGGTTTTCCCGGTAATCCGTATTTGTC (site ACATCAACTGA) into the matching recombinant UMI read abundance (log10) band.
top bin

Category of CTGCTCTCATGGACCGGTTTTCCCGGTAATCCGTATTTGTA (site CTACTCTCTTA) :
top bin

Hi, small favor: classify CGATCGCCATGGACCGGTTTTCCCGGTAATCCGTATTTGTT (site CGATCGTCTAA) by its recombinant UMI read abundance (log10) when you get a moment.
top bin

Exercise: read the entry CGGACGTCATGGACCGGTTTTCCCGGTAATCCGTATTTGCT (site CGGACCTCTAG) and state which class it falls under.
bottom bin

Could you place GGTTCAACATGGACCGGTTTTCCCGGTAATCCGTATTTGTA (site GGTACAACTTA) in its proper category? Many thanks.
bottom bin

Sort CAATTCACATGGACCGGTTTTCCCGGTAATCCGTATTTGGG (site CAAATCACTCC) into one of the categories.
top bin

The entry to classify is CTAGTGCCATGGACCGGTTTTCCCGGTAATCCGTATTTGAC (site CTAGTGCCTGT) ; which class holds it?
top bin

In plain terms, what class is CGGGAACCATGGACCGGTTTTCCCGGTAATCCGTATTTGCG (site CGGGAACCTCG) ?
bottom bin

Just checking, what class would you give TTGGCGCCATGGACCGGTTTTCCCGGTAATCCGTATTTGAG (site TTGGCGCCTCT) here?
bottom bin

State the band of CGGACATCATGGACCGGTTTTCCCGGTAATCCGTATTTGGT (site CGGACATCTAA)
middle bin

Input AGAAACGCATGGACCGGTTTTCCCGGTAATCCGTATTTGCT (site AGAAACGCTAG) ; output its category
top bin
